Data origin: ChEMBL document CHEMBL5214935

experiment: Unbound fraction in rat plasma; assay type: ADME, cell-free
MEASURED_QUANTITY: Fu

COMPOUND	Fu
Cn1ncc(S(=O)(=O)N2CC[C@H](C(=O)Nc3ccc4scnc4c3)[C@@H](F)C2)c1Cl (racemic)	0.005

A: Cc1nn(C)cc1S(=O)(=O)N1CC[C@H](C(=O)Nc2ccc3scnc3c2)[C@@H](F)C1 (racemic)
B: Cc1ncc(S(=O)(=O)N2CC[C@H](C(=O)Nc3ccc4scnc4c3)[C@@H](F)C2)s1 (racemic)
C: Cc1nn(C)cc1S(=O)(=O)N1CCC(C(=O)Nc2ccc3scnc3c2)CC1
Q. Sort ascending by Fu. Form entry: ranked labels (order as requested).
A. B, A, C
(B: 0.007, A: 0.02, C: 0.03)

====

tested on: P-glycoprotein (human); test: Efflux ratio of permeability in MDCK-MDR1 cells expressing human P-glycoprotein; assay type: ADME, cell-based, Canis lupus familiaris; conditions: dog
MEASURED_QUANTITY: efflux ratio

MOLECULE	VALUE_REPORTED
Cc1nn(C)cc1S(=O)(=O)N1CCC(C(=O)Nc2ccc3scnc3c2)CC1	110
Cc1nn(C)cc1S(=O)(=O)N1CC[C@H](C(=O)Nc2ccc3scnc3c2)[C@@H](F)C1 (racemic)	110

====

biological target: Muscarinic acetylcholine receptor M5 (Homo sapiens) (UniProt P08912); test: Antagonist activity at human muscarinic M5 receptor expressed in CHO cells assessed as minimal acetylcholine response by calcium mobilisation assay relative to control; type: functional, cell-based; set-up: concentration or dose not given beside the values; details: filed as antagonist
Sequence (P08912 whole entry): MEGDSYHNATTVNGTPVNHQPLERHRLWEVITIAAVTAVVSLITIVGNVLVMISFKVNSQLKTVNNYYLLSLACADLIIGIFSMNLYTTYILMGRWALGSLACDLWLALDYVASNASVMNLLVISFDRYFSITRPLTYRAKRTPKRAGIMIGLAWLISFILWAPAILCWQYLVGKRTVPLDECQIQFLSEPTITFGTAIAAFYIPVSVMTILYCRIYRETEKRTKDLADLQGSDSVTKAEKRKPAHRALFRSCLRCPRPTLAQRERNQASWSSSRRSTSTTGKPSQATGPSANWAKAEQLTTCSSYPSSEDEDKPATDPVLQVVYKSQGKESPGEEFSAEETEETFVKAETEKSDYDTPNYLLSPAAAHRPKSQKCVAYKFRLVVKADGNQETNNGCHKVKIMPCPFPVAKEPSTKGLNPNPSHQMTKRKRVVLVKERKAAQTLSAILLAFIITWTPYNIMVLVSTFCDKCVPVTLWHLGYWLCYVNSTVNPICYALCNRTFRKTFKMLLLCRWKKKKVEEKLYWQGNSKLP
MEASURED_QUANTITY: Activity (%)

Example entries and their recorded answers appear below.
MOLECULE	READOUT_UNITS	Activity
CC1Cc2cc(S(=O)(=O)N3CCC(C(=O)Nc4ccc5scnc5c4)CC3)ccc2O1 (racemic)	%	16
O=C(Nc1ccc2scnc2c1)C1CCN(S(=O)(=O)c2ccc3ncsc3c2)CC1	%	2
Cn1ncc(S(=O)(=O)N2CC[C@H](C(=O)Nc3ccc4scnc4c3)[C@@H](F)C2)c1Cl (racemic)	%	2
O=C(Nc1ccc2cccnc2c1)C1CCN(S(=O)(=O)c2ccc3c(c2)CCO3)CC1	%	3
O=C(Nc1ccc2scnc2c1)C1CCN(S(=O)(=O)c2ccc(Cl)nc2)CC1	%	3
Cc1nn(C)cc1S(=O)(=O)N1CCC(C(=O)Nc2ccc3scnc3c2)CC1	%	2
C[C@H]1CN(S(=O)(=O)c2ccc3c(c2)CCO3)CC[C@@H]1C(=O)Nc1ccc2scnc2c1 (racemic)	%	3
CC1COc2ccc(S(=O)(=O)N3CCC(C(=O)Nc4ccc5scnc5c4)CC3)cc21 (racemic)	%	3

P: C[C@@H]1C[C@@H](C(=O)Nc2ccc3scnc3c2)CCN1S(=O)(=O)c1ccc2c(c1)CCO2 (racemic)
Q: C[C@@H]1C[C@H](C(=O)Nc2ccc3scnc3c2)CCN1S(=O)(=O)c1ccc2c(c1)CCO2 (racemic)
R: O=C(Nc1ccc2snnc2c1)C1CCN(S(=O)(=O)c2ccc3c(c2)CCO3)CC1
S: Cc1nc2cc(NC(=O)C3CCN(S(=O)(=O)c4ccc5c(c4)CCO5)CC3)ccc2s1
Q. Please list the entries, largest Activity first. Form entry: ranked labels (order as requested).
A. S, R, P, Q

====

target: Muscarinic acetylcholine receptor M5 (Rattus norvegicus, UniProt P08911); assay: Antagonist activity at rat muscarinic M5 receptor
Sequence (P08911 whole entry): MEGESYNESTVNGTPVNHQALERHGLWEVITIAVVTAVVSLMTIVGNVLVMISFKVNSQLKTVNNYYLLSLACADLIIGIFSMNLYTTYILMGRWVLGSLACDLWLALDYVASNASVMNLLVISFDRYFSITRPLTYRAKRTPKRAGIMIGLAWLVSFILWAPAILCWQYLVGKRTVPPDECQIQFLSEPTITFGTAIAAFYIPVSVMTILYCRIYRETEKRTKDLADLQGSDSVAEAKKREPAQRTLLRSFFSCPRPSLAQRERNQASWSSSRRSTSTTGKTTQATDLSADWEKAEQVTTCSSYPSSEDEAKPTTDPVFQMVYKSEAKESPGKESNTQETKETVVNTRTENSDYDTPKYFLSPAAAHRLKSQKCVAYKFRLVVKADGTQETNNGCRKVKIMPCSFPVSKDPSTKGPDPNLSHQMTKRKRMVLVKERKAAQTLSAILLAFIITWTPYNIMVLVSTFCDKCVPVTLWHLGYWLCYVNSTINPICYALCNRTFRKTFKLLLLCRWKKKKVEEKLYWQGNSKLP
pIC50: −log10 of the molar value.
MEASURED_QUANTITY: pIC50

P: Cc1nn(C)cc1S(=O)(=O)N1CCC(C(=O)Nc2ccc3scnc3c2)CC1
Q: Cc1nn(C)cc1S(=O)(=O)N1CC[C@H](C(=O)Nc2ccc3scnc3c2)[C@@H](F)C1 (racemic)
R: O=C(Nc1ccc2scnc2c1)C1CCN(S(=O)(=O)c2ccc3c(c2)CCO3)CC1
Q. Rank the 3 compounds shown above by pIC50, smallest number first. Form entry: ranked labels (order as requested).
A. P, Q, R
